Biological target: dAsCas12a Ultra (Acidaminococcus sp., UniProt U2UMQ6 1-1307, M537R;F870L;D908A;E993A;D1235A)
Assay: Spec-seq (native PAGE EMSA with sequencing of bound and unbound); 25 mM Tris-HCl pH 7.4, 150 mM KCl, 5 mM MgCl2, 10% glycerol, 1 mM DTT, 40 ng/uL salmon sperm DNA; 400 nM Cas12a, 480 nM crRNA, 50 nM library, 37 C 1 h; native PAGE at room temperature; high values mean tight binding
Conditions: protein: recombinant
measure: binding signal (lnKA)
Dear colleague, please return just the value in lnKA, with no unit written.

Report measured binding signal; entry is AGTG (dsDNA) DNA 1: GCTATCTAGTGCTCAGTACGCACTGAGTGAGGAAACTTCTGGCAGGACCAGGTCATGAGATCGGAAGAGCACACGTCTGAACTCCAGTCA DNA 2: TGACTGGAGTTCAGACGTGTGCTCTTCCGATCTCATGACCTGGTCCTGCCAGAAGTTTCCTCACTCAGTGCGTACTGAGCACTAGATAGC RNA: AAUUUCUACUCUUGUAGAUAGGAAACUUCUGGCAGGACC
-8.77

Report measured binding signal; entry is TAGA (dsDNA) DNA 1: GCTATCTAGTGCTCAGTACGCACTGTAGAAGGAAACTTCTGGCAGGACCAGGTCATGAGATCGGAAGAGCACACGTCTGAACTCCAGTCA DNA 2: TGACTGGAGTTCAGACGTGTGCTCTTCCGATCTCATGACCTGGTCCTGCCAGAAGTTTCCTTCTACAGTGCGTACTGAGCACTAGATAGC RNA: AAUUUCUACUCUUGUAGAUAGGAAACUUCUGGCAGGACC
-8.98

Then this binder:
Report measured binding signal; entry is GGTT (dsDNA) DNA 1: GCTATCTAGTGCTCAGTACGCACTGGGTTAGGAAACTTCTGGCAGGACCAGGTCATGAGATCGGAAGAGCACACGTCTGAACTCCAGTCA DNA 2: TGACTGGAGTTCAGACGTGTGCTCTTCCGATCTCATGACCTGGTCCTGCCAGAAGTTTCCTAACCCAGTGCGTACTGAGCACTAGATAGC RNA: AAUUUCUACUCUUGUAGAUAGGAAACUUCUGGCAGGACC
-8.59
